Target: Alpha-1D adrenergic receptor (Homo sapiens)
Sequence (P25100 whole entry): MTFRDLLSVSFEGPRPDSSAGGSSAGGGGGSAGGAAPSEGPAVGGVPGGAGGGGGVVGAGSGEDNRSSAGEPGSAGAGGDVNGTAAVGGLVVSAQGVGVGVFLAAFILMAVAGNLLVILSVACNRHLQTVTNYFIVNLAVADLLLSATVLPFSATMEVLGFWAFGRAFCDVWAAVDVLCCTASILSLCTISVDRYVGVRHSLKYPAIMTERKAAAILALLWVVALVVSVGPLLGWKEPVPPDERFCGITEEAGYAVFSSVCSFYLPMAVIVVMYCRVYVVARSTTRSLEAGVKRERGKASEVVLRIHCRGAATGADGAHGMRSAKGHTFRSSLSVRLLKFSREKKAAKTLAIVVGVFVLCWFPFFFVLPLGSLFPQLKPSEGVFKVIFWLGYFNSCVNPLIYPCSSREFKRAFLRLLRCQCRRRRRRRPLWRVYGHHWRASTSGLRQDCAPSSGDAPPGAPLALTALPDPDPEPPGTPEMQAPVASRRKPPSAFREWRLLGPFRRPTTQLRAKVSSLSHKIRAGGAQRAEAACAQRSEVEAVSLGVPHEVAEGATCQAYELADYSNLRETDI
Experiment: Selectivity interaction (GPCR panel (PDSP screen)) EUB0000746a ADRA1D
outcome measure: Ki

>>> result("O=C(NS(=O)(=O)c1ccc(NCC2CCOCC2)c([N+](=O)[O-])c1)c1ccc(N2CCN(Cc3ccc(C(F)(F)F)cc3-c3ccc(Cl)cc3)CC2)cc1Oc1cnc2[nH]ccc2c1")
"> 10 µM"

Data credit: ChEMBL document CHEMBL5212743
